- assayTarget: 5-hydroxytryptamine receptor 1A (Rattus norvegicus)
- Sequence (P19327 whole entry): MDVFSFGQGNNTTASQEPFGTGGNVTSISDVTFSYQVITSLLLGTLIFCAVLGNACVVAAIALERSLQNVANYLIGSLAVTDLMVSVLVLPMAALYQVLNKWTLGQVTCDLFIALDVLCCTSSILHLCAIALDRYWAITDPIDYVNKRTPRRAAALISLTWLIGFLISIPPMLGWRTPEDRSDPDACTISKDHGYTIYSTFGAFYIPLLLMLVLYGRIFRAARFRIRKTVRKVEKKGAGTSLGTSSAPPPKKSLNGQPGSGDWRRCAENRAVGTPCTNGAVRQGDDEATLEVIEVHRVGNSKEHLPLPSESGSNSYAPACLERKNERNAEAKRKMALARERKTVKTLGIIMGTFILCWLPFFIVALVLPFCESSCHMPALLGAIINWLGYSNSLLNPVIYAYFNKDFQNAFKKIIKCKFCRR
valueKind: pKi
pKi is a log-scale quantity: -log10 of the concentration expressed in molar.

Looking up O=C(CCCCCN1CCN(c2noc3ccccc23)CC1)NC1CCCc2ccccc21 (stereo unspecified) , I found its pKi recorded as 5.41
